# Tested on: CP215
# TEST_NAME: qHTS profiling for inhibitors of Plasmodium falciparum proliferation (AID 504749); further: nearly all actives have a fitted effect of over 60% in size
# STATED_CONDITIONS: P. falciparum in erythrocytes, SYBR Green DNA, 72 h; series mostly up to 28.7 µM
Results filed as inconclusive are left out. Activity calls are given as the source filed them. The call rests on the fitted dose curve; in most records, active means well fitted inhibition curve with a large enough effect; inconclusive means small, poorly fitted or top-dose-only effect; inactive means flat fitted curve, though single readings scatter.
Bench note: report the call from yes (active), no (inactive)

These recorded examples may help you get a feel for the data.
[
  {
    "COMPOUND": "O=C(O)[C@H]1C[C@@H](CP(=O)(O)O)CCN1",
    "CATEGORY": "no"
  },
  {
    "COMPOUND": "C=C1CC[C@H](O)C/C1=C/C=C1\\CCC[C@]2(C)[C@@H]([C@H](C)CC[C@@H](O)C(C)(C)O)CC[C@@H]12",
    "CATEGORY": "no"
  },
  {
    "COMPOUND": "CC1=C(c2ccc(NN=C(C#N)C#N)cc2)NNC(=O)C1",
    "CATEGORY": "no"
  },
  {
    "COMPOUND": "CC1(C(=O)O)CCC2(C)CCC3(C)C(=CC(=O)C4C5(C)CCC(O)C(C)(C)C5CCC43C)C2C1 (centres undefined)",
    "CATEGORY": "no"
  }
]

I'd appreciate the recorded outcome for CC[C@]1([C@H]2O[C@@H]([C@@H]3O[C@](O)(CO)[C@@H](C)C[C@H]3C)C[C@H]2C)CC[C@@H]([C@]2(C)CC[C@@]3(C[C@@H](O)[C@@H](C)[C@@H]([C@H](C)[C@H](OC)[C@H](C)C(=O)O)O3)O2)O1 from this test.
yes

Item: CC1CN(c2c(F)c(N)c3c(=O)c(C(=O)O)cn(C4CC4)c3c2F)CC(C)N1 (centres undefined)
no

Item: O=C(O)C[CH2][Ge](=[O])[O][Ge](=[O])[CH2]CC(=O)O
no

Item: CC1=C(/C=C/C(C)=C\C=C\C(C)=C\C=C\C=C(C)\C=C\C=C(C)\C=C\C2=C(C)C[C@@H](O)CC2(C)C)C(C)(C)C[C@H](O)C1
no

Item: O=C1CC[C@H](C(=O)N[C@@H]2C[C@H]2c2ccccc2)N1
no

---

# TESTED_TARGET: Nuclear receptor subfamily 1 group I member 2 (Rattus norvegicus) (UniProt Q9R1A7)
# Sequence (Q9R1A7 whole entry, looked up): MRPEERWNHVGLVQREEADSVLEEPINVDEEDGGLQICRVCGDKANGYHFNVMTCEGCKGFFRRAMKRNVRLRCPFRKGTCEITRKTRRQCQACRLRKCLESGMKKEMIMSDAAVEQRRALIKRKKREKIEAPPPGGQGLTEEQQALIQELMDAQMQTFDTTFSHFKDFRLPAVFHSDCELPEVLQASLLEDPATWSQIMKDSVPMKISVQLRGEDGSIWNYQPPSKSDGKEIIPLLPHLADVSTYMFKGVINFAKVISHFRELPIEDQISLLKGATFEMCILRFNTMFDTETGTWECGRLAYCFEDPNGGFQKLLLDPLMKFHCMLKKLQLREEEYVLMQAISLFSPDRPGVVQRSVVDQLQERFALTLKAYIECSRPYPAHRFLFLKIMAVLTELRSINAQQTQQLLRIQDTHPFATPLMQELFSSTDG
# TEST_NAME: qHTS assay for small molecule activators of the rat pregnane X receptor (rPXR) signaling pathway (AID 651751); further: 0% is about no effect
# STATED_CONDITIONS: rPXR reporter cells, luciferase (One-Glo), 24 h
Active and inactive are the calls of the source. How the calls were made is not given here.
REPORTED_ENDPOINT: max response

These solved cases illustrate the format of a correct answer.
[
  {
    "COMPOUND": "Cc1cccc(O)c1C",
    "max response": "-0.434% (inactive)"
  },
  {
    "COMPOUND": "C=CC(=O)OCCOCCOC(=O)C=C",
    "max response": "9.16% (inactive)"
  },
  {
    "COMPOUND": "CC1CCC(C(C)C)C(O)C1 (stereo not drawn)",
    "max response": "-4.79% (inactive)"
  },
  {
    "COMPOUND": "O=c1oc2cc(O)ccc2c2oc3cc(O)ccc3c12",
    "max response": "3.73% (inactive)"
  },
  {
    "COMPOUND": "Cc1ccc(S(=O)(=O)Oc2ccc(N=Nc3ccc(-c4ccc(N=Nc5c(O)ccc6cc(S(=O)(=O)O)cc(S(=O)(=O)O)c56)c(C)c4)cc3C)cc2)cc1",
    "max response": "-4.06% (inactive)"
  },
  {
    "COMPOUND": "O=C1OC(O)C(C(Cl)Cl)=C1Cl (stereo not drawn)",
    "max response": "-3.61% (inactive)"
  },
  {
    "COMPOUND": "CO[C@H]1/C=C/O[C@@]2(C)Oc3c(C)c(O)c4c(O)c(c5c(c4c3C2=O)NC2(CCN(CC(C)C)CC2)N=5)=NC(=O)/C(C)=C\\C=C\\[C@H](C)[C@H](O)[C@@H](C)[C@@H](O)[C@@H](C)[C@H](OC(C)=O)[C@@H]1C",
    "max response": "7.05% (inactive)"
  },
  {
    "COMPOUND": "O=Cc1ccc(Cl)c(Cl)c1",
    "max response": "-0.904% (inactive)"
  }
]

// input: 5 compounds below; output: max response for each
1. Cc1cc(C(C)(C)CC(C)(C)C)ccc1OCCOCC[N+](C)(C)Cc1ccccc1
2. CN(C)c1ccc(C2(c3ccc(N(C)C)cc3)OC(=O)c3cc(N(C)C)ccc32)cc1
3. CC1(C)CCC(C)(C)c2cc(C(=O)Nc3ccc(C(=O)O)cc3)ccc21
4. CCCCCC/C(C=O)=C\c1ccccc1
5. C=CC(=O)OCC(CO)(COC(=O)C=C)COC(=O)C=C

["-12.4% (inactive)", "-2.55% (inactive)", "-9.44% (inactive)", "-2.08% (inactive)", "-14.2% (inactive)"]

---

# TESTED_TARGET: Cytochrome P450 2C19 (Homo sapiens) (UniProt P33261)
# Sequence (P33261 whole entry, looked up): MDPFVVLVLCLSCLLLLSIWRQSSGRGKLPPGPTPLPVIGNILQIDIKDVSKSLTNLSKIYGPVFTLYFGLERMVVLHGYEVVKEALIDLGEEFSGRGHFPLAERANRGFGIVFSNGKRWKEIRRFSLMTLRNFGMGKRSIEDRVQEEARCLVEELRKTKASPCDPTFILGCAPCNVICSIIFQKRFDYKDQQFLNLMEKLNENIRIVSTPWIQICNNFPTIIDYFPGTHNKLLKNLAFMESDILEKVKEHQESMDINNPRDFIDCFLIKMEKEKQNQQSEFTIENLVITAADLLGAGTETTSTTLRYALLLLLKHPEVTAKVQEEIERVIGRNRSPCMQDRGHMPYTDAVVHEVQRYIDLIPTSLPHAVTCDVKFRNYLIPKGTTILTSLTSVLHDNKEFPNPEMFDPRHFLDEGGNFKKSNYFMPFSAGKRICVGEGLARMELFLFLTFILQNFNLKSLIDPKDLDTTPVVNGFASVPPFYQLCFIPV
# TEST_NAME: qHTS Assay for Inhibitors and Substrates of Cytochrome P450 2C19 (AID 899); further: nearly all actives have a fitted effect of over 60% in size
# STATED_CONDITIONS: recombinant CYP2C19, luciferin-H EGE luminescence; series mostly up to 57.1 µM
Results filed as inconclusive are left out. Calls of active or inactive are those of the source. Calls follow the shape of the dose curve; as a rule, active = well fitted inhibition curve with a large enough effect; inconclusive = small, poorly fitted or top-dose-only effect; inactive = no such curve, though single readings can be large or run the other way.
Bench note: report the call from active, inactive

These recorded examples may help you get a feel for the data.
[
  {
    "COMPOUND": "O=C(N[C@@H](c1ccccc1)[C@@H]1C[C@H]1C(=O)NCc1ccccn1)OCc1ccccc1",
    "CATEGORY": "active"
  },
  {
    "COMPOUND": "COc1ccc2c(c1)[C@]1(C)CCC[C@](C)(CO)[C@@H]1CC2",
    "CATEGORY": "active"
  }
]

I'd appreciate the recorded outcome for CC(C)[C@@H](CC(=O)N[C@@H]1CCCC[C@H]1C(=O)N[C@H](CC(=O)N[C@@H](CCC(=O)O)CC(=O)O)Cc1ccccc1)NC(=O)C[C@H](CO)NC(=O)[C@@H]1CNCC[C@H]1N from this test.
inactive

---

# Tested on: CP315
# TEST_NAME: qHTS profiling for inhibitors of Plasmodium falciparum proliferation (AID 504749); further: nearly all actives have a fitted effect of over 60% in size
# STATED_CONDITIONS: P. falciparum in erythrocytes, SYBR Green DNA, 72 h; series mostly up to 28.7 µM
Inconclusive results are not listed. Active and inactive are the calls of the source. Calls follow the shape of the dose curve; as a rule, active = well fitted inhibition curve with a large enough effect; inconclusive = small, poorly fitted or top-dose-only effect; inactive = flat fitted curve, though single readings scatter.
Bench note: report the call from T (active), F (inactive)

These recorded examples may help you get a feel for the data.
[
  {
    "MOLECULE": "C=C1/C(=C\\C=C2/CCC[C@]3(C)[C@@H]([C@H](C)/C=C/[C@@H](O)C4CC4)CC[C@@H]23)C[C@@H](O)C[C@@H]1O",
    "CATEGORY": "F"
  },
  {
    "MOLECULE": "C[C@H](O)[C@@H]1C(=O)N2C(C(=O)O)=C(SCCN=CN)C[C@@H]12",
    "CATEGORY": "F"
  },
  {
    "MOLECULE": "Cn1cc(C(=O)[C@@H]2CCc3[nH]cnc3C2)c2ccccc21",
    "CATEGORY": "F"
  },
  {
    "MOLECULE": "C[C@@H](O)[C@@H]1C(=O)N2C(C(=O)O)=C([C@H]3CCCO3)S[C@H]12",
    "CATEGORY": "F"
  }
]

Attention now turns to another entry.
I'd appreciate the recorded outcome for CC1CCC(C(C)C)C(O)C1 (stereo not drawn) from this test.
F

---

# Tested on: CP265
# TEST_NAME: qHTS profiling for inhibitors of Plasmodium falciparum proliferation (AID 504749); further: nearly all actives have a fitted effect of over 60% in size
# STATED_CONDITIONS: P. falciparum in erythrocytes, SYBR Green DNA, 72 h; series mostly up to 28.7 µM
Results filed as inconclusive are left out. Activity calls are given as the source filed them. The call rests on the fitted dose curve; in most records, active means well fitted inhibition curve with a large enough effect; inconclusive means small, poorly fitted or top-dose-only effect; inactive means flat fitted curve, though single readings scatter.
Bench note: report the call from TRUE = active, FALSE = inactive

These recorded examples may help you get a feel for the data.
[
  {
    "COMPOUND": "CC(=O)O[C@]1(C(C)=O)CCC2C3CCC4=CC(=O)CCC4(C)C3(F)C(O)CC21C (stereo partly drawn)",
    "CATEGORY": "FALSE"
  },
  {
    "COMPOUND": "CCCCC(=O)O[C@]1(C(=O)CO)CCC2C3CCC4=CC(=O)CCC4(C)C3C(O)CC21C (stereo partly drawn)",
    "CATEGORY": "FALSE"
  }
]

I'd appreciate the recorded outcome for C=C(NCc1ccccc1)c1ccccc1O from this test.
FALSE

Item: C[C@H](O)[C@@H]1C(=O)N2C(C(=O)O)=C(SCCN=CN)C[C@@H]12
FALSE

---

# TEST_NAME: qHTS Assay for Identification of Small Molecule Agonists for Thrombopoietin (TPO) Signaling Pathway (AID 917)
# STATED_CONDITIONS: TPO signaling pathway reporter cells, agonist qHTS, stimulated with TPO at its EC50; series mostly up to 38.5 µM
Records with an inconclusive call do not appear. Activity calls are given as the source filed them. Calls follow the shape of the dose curve; as a rule, active = well fitted activation curve with a large enough effect; inconclusive = small, poorly fitted or top-dose-only effect, or effect the other way; inactive = flat fitted curve, though single readings scatter.
Bench note: report the call from 1 (yes) = active, 0 (no) = inactive

[
  {
    "MOLECULE": "N[C@H](Cc1ccc(F)cc1)C(=O)O",
    "CATEGORY": "0 (no)"
  },
  {
    "MOLECULE": "CN1C[C@@H](C(=O)N[C@]2(C)O[C@]3(O)[C@H]4CCCN4C(=O)[C@H](Cc4ccccc4)N3C2=O)C[C@H]2c3cccc4[nH]cc(c34)C[C@@H]21",
    "CATEGORY": "0 (no)"
  },
  {
    "MOLECULE": "COc1cccc(OC)c1OCCNC[C@@H]1CSc2ccccc2O1",
    "CATEGORY": "0 (no)"
  },
  {
    "MOLECULE": "COc1ccc(NC(=O)/C=C\\c2ccc(Cl)cc2)cc1",
    "CATEGORY": "1 (yes)"
  },
  {
    "MOLECULE": "NC[C@@H]1O[C@@H](O[C@H]2[C@@H](O)[C@H](O[C@@H]3[C@H](O)[C@H](N)C[C@H](N)[C@H]3O[C@@H]3O[C@@H](CO)[C@H](O)[C@H](O)[C@@H]3N)O[C@H]2CO)[C@H](N)[C@H](O)[C@@H]1O",
    "CATEGORY": "0 (no)"
  },
  {
    "MOLECULE": "C#CCN1C(C)=C(C(=O)OC)[C@@H](c2cccc([N+](=O)[O-])c2)C(C(=O)OCC)=C1C",
    "CATEGORY": "0 (no)"
  }
]

Attention now turns to another entry.
I'd appreciate the recorded outcome for CCCCCC[C@@H]([C@H](C)O)n1cnc2c(N)ncnc21 from this test.
0 (no)
